# Test system: P. falciparum 3D7 trophozoites
# Experiment Description: Metabolomic fingerprint profiling LC-MS
# Type: cell-based, Plasmodium falciparum
# Experimental Setup: metabolite level change after treatment
Assay Metric: IMP
The answer should be written as a number, with no unit following it.

Record excerpt, results attached:
- CN(C)c1ccc(C=Cc2nc(=O)c3ccccc3o2)cc1 [MMV006309]: -0.05126
- Cc1ccc(Nc2nc(NCCO)c3ccccc3n2)cc1C [MMV001038]: 0.7773
- CCC1(C)CC(CCNCc2ccccc2O)(c2ccc(C)cc2)CCO1 (stereo not drawn) [MMV019406]: -0.4258

// query Fill in the blank: the reported IMP of COc1ccc(C=C2SC(=N)N(c3ccccc3OC)C2=O)cc1 [MMV666691] is ____.
// result 0.07363

// query Value lookup for IMP; key = Cc1ccc(-c2cc3c(nn2)-c2ccccc2C3=O)cc1 [MMV666021]
// result -0.1163

// query Given the entry COc1ccc2c(c1)OC(O)(C(F)(F)C(F)(F)F)CC2=O (stereo not drawn) [MMV007839] , report its measured IMP.
// result -0.6059

// query What does the record list as IMP for Cc1cc(C)cc(Nc2cc(C)nc3nc(C(F)(F)F)nn23)c1 [MMV011259] ?
// result -0.2517

// query Given Cc1ccc(N2C(=O)C3C(C2=O)C2(c4ccccc4)C(=O)C3(c3ccccc3)C(c3ccccc3)=C2c2ccccc2)cc1 (stereo not drawn) [MMV666062] , state its recorded IMP.
// result -0.5384

// query IMP for Fc1ccc2[nH]c3c(NCCCN4CCOCC4)ncnc3c2c1 [MMV019871] ?
// result 0.1512

* * *

# Test system: P. falciparum 3D7 trophozoites
# Experiment Description: Metabolomic fingerprint profiling LC-MS
# Type: cell-based, Plasmodium falciparum
# Experimental Setup: metabolite Octoluse Bisphosphate; S2 Table Metabolomics, change in metabolite level after compound treatment
Assay Metric: Octoluse Bisphosphate
// return just the number, without any unit appended

Example results:
* Cc1cc(Nc2ccc3ccccc3c2)n2ncnc2n1 [MMV011099] | 0.08614
* CN(C)CCCNc1c2ccccc2nc2ccccc12 [MMV000448] | -0.105
* CCc1c(C)c(=N)c2ccccc2n1C [MMV006278] | -0.2383
* CCC(c1ccccc1)c1nn2c(-c3cccs3)nnc2s1 (stereo not shown) [MMV665876] | -0.1952
* COc1ccc2c(c1)OC(O)(C(F)(F)C(F)(F)F)CC2=O (stereo not shown) [MMV007839] | 0.7306

// query # get_value(readout='Octoluse Bisphosphate', item= CCN1CCN(Cc2ccc(NC(=O)c3cc4ccc5cccnc5c4[nH]3)cc2)CC1 [MMV020548] )
// result -0.5083

* * *

# Tested on: P. falciparum 3D7 or K1
# Experiment Description: Asexual Blood Stage Imaging Assay (DAPI) V. Avery
# Assay type: cell-based
# Experimental Setup: Plasmodium falciparum; read-out: P. falciparum K1 asexual blood stage EC50 (Image) V. Avery
Assay Metric: pEC50
Keep in mind that pEC50 stands for -log10 of concentration in molar terms.

// query # lookup: pEC50 of CCc1nc(N)nc(N)c1-c1ccc(Cl)cc1 [pyrimethamine, reference compound]
// result 5.14

* * *

# Test system: P. falciparum 3D7 trophozoites
# Experiment Description: Metabolomic fingerprint profiling LC-MS
# Type: cell-based, Plasmodium falciparum
# Experimental Setup: metabolite dGMP/AMP; S2 Table Metabolomics, change in metabolite level after compound treatment
Assay Metric: dGMP/AMP
Give the value as a plain number.

* Cc1ccc(N2C3c4ccccc4N(S(=O)(=O)c4ccc(C)cc4)C2c2ccccc2N3S(=O)(=O)c2ccc(C)cc2)cc1 [MMV007160] | 0.0905
* CCOC(=O)c1cnc2ccc(CC)cc2c1O [MMV007116] | -0.3675
* O=C1C(O)=C([C@H]2CC[C@H](c3ccc(Cl)cc3)CC2)C(=O)c2ccccc21 [Atovaquone, reference compound] | -0.116

# context switch: different compound, same dGMP/AMP
// query Lab request: please report dGMP/AMP under test system P. falciparum 3D7 trophozoites for COc1ccc(NC(=O)C2c3ccccc3C(=O)N(CC(C)C)C2c2cccs2)cc1 (stereo not shown) [MMV000662]
// result -0.6193

* * *

# System: P. falciparum 3D7 trophozoites
# Experiment Description: Metabolomic fingerprint profiling LC-MS
# Assay type: cell-based, Plasmodium falciparum
# Experimental Setup: S2 Table Metabolomics; peptide PEE
// label = yes (1) if PEE is not less than -0.4, otherwise no (0)

• c1ccc2cc3c(Nc4ccc(N5CCOCC5)cc4)ccnc3cc2c1 = yes (1)

// query Given `CCc1c(C)c(=N)c2ccccc2n1C` , state whether its PEE is at least -0.4.
// result yes (1)

// query Textbook exercise: given the entry CCC1(C)CC(CCNCc2ccccc2O)(c2ccc(C)cc2)CCO1 (centres unmarked) , state whether its PEE is greater than or equal to -0.4.
// result no (0)

// query Hi team, for `CCN(CC)CCNc1ncnc2c1[nH]c1ccc(Cl)cc12` , is the recorded PEE at or above -0.4?
// result yes (1)

* * *

# Tested on: P. falciparum 3D7 trophozoites
# Experiment Description: Metabolomic fingerprint profiling LC-MS
# Format: cell-based, Plasmodium falciparum
# Experimental Setup: metabolite level change after treatment
Assay Metric: IMP
Write the value as a bare number.

Below are worked cases with known answers.
- Cc1ccc(N2C3c4ccccc4N(S(=O)(=O)c4ccc(C)cc4)C2c2ccccc2N3S(=O)(=O)c2ccc(C)cc2)cc1 [MMV007160]: -0.03231
- CCCc1c(CC)c(=N)c2ccccc2n1C [MMV008416]: 0.4308
- CCOC(=O)c1c(C)n(-c2ccc(Cl)cc2)c2ccc(OC(=O)C=Cc3ccccc3)cc12 [MMV666600]: 0.3406
- O=C(O)C1Cc2c([nH]c3ccccc23)C(c2ccc(Cl)cc2Cl)N1 (stereo not drawn) [MMV008138]: 0.3745

// query Item: CSc1ccccc1C(=O)Nc1nc(-c2ccccn2)cs1 [MMV001246] Test system: P. falciparum 3D7 trophozoites Read-out: IMP Value: ?
// result 0.3566

// query Recall the recorded IMP for c1ccc(Cn2c(N=Nc3c(Nc4ccccc4)ccc4ccccc34)nc3ccccc32)cc1 [MMV666023] with P. falciparum 3D7 trophozoites and state it.
// result 0.4441

// query Requested read-out IMP, target or system P. falciparum 3D7 trophozoites, entry C[n+]1c2ccccc2nc2ccc(NCCO)cc21 [MMV396693]
// result 0.1162

// query Param readout= IMP; system= P. falciparum 3D7 trophozoites; entry= COc1ccc(-n2ccnc2SCC(=O)Nc2cc(C)ccc2C)c(OC)c1 [MMV019258] ; returns value.
// result 0.3439

// query API: value(readout= IMP, system= P. falciparum 3D7 trophozoites, query= COc1ccc(-c2c(C)nn3c(N)c(C#N)cnc23)cc1OC [MMV396797] )
// result 0.7032

* * *

# Test system: P. falciparum 3D7 trophozoites
# Experiment Description: Metabolomic fingerprint profiling LC-MS
# Type: cell-based, Plasmodium falciparum
# Experimental Setup: S2 Table Metabolomics; metabolite N-carbamoyl-L-aspartate
We label by threshold. Values of N-carbamoyl-L-aspartate strictly beneath -1 are Condition met. Values of -1 and up are Condition not met.

As a guide, the following entries are already answered.
* CC1CCN(Cc2ccc(NC(=O)c3cc4ccc5cccnc5c4[nH]3)cc2)CC1 [MMV020549] | Condition not met
* COc1ccc(C(=O)Nc2nonc2-c2ccc(OC)c(OC)c2)cc1Cl [MMV011567] | Condition met
* CCCc1cc(O)c2c3c(c(=O)oc2c1)CN(C)CC3 [MMV665841] | Condition not met
* CCOC(=O)c1cnc2c(C)cc(C)cc2c1Nc1ccc(OC)c(OC)c1 [MMV008294] | Condition not met
* COc1ccc(Br)cc1C1Nc2ccc3ccccc3c2C2=C1C(=O)CC(c1ccccc1)C2 (stereo not drawn) [MMV020885] | Condition not met

// query Does Oc1ccccc1CNCC12CC3CC(CC(C3)C1)C2 [MMV020788] have N-carbamoyl-L-aspartate strictly under -1?
// result Condition met

// query In the record for Cc1cc(C)c2c(c1)OCN(Cc1ccccc1Cl)C2 [MMV006558] , is N-carbamoyl-L-aspartate less than -1?
// result Condition met

// query Regarding COc1ccc(C=C2SC(=N)N(c3ccccc3OC)C2=O)cc1 [MMV666691] , kindly confirm whether its N-carbamoyl-L-aspartate is beneath -1.
// result Condition not met

// query Take the compound O=C(O)C1Cc2c([nH]c3ccccc23)C(c2ccc(Cl)cc2Cl)N1 (stereo not drawn) [MMV008138] and say whether its N-carbamoyl-L-aspartate is less than -1.
// result Condition not met

* * *

# Test system: P. falciparum 3D7 trophozoites
# Experiment Description: Metabolomic fingerprint profiling LC-MS
# Format: cell-based, Plasmodium falciparum
# Experimental Setup: metabolite succinate/methylmalonic acid; S2 Table Metabolomics, change in metabolite level after compound treatment
Assay Metric: succinate/methylmalonic acid
Lab note: write the figure by itself, no unit.

Worked set:
- CCCc1c(CC)c(=N)c2ccccc2n1C [MMV008416]: -0.5916
- Cc1ccc(N2C3c4ccccc4N(S(=O)(=O)c4ccc(C)cc4)C2c2ccccc2N3S(=O)(=O)c2ccc(C)cc2)cc1 [MMV007160]: 0.03261
- CC1CN(C(=O)c2sc3ccccc3c2Cl)CC(C)O1 (centres unmarked) [MMV020492]: 0.003908
- O=C1C(O)=C([C@H]2CC[C@H](c3ccc(Cl)cc3)CC2)C(=O)c2ccccc21 [Atovaquone, reference compound]: -0.1814
- COc1ccc(-n2ccnc2SCC(=O)Nc2cc(C)ccc2C)c(OC)c1 [MMV019258]: 0.09628

// query So what's the measured succinate/methylmalonic acid for this one? CCOc1ccc(-c2nonc2NC(=O)c2cccc(C)c2)cc1OCC [MMV665805]
// result -1.698

// query Could you tell me which succinate/methylmalonic acid is on file for O=C(CSc1nccn2nc(-c3ccccc3)cc12)Nc1cc(C(F)(F)F)ccc1Cl [MMV396678] ?
// result 0.03069

// query Item under review: COc1ccc(C2=C(c3ccc(OC)cc3)C3(c4ccccc4)C(=O)C2(c2ccccc2)C2C(=O)N(c4ccc(C)cc4)C(=O)C23)cc1 (centres unmarked) [MMV666101] . Reported succinate/methylmalonic acid?
// result -0.01842
